measurement_description: Cytotoxicity against human dermal fibroblast cultured as 2D cells assessed as inhibition of cell growth incubated for 48 hrs by MTT assay
Format: toxicity, cell-based
experimental_parameters: human dermal fibroblasts cultured as 2D cells
readout_label: CC50 at 48 h

Enquiry: I am curious: what CC50 at 48 h value has been reported for `COC(=O)[C@@H]1Cc2c([nH]c3ccccc23)[C@@H](c2ccc3c(c2)OCO3)N1` ?
Return: > 640 µg/mL

----------
Tested on: Plasmodium falciparum
measurement_description: Antimalarial activity against chloroquine-sensitive Plasmodium falciparum D10 transfected in human type A-positive RBC cells assessed reduction in parasite growth by measuring LDH activity incubated for 72 hrs by spectrophotometric analysis
Type: functional, organism-based
experimental_parameters: Plasmodium falciparum, D10, Erythrocyte, 72 h
Measured IC50, listed per entry.
Number in µM, nothing else.

[[record]]
compound = "CCC1NC(C(=O)NC23CC4CC(CC(C4)C2)C3)Cc2c1[nH]c1ccccc21 (configuration not stated)"
study_target = "Plasmodium falciparum"
measured_value = 9.73

[[record]]
compound = "CC(C)(C)CC(C)(C)NC(=O)C1Cc2c([nH]c3ccccc23)C(c2ccc(Cl)cc2)N1 (configuration not stated)"
study_target = "Plasmodium falciparum"
measured_value = 8.41

[[record]]
compound = "CC(C)(C)CCNC(=O)C1Cc2c([nH]c3ccccc23)C(c2ccc(Cl)cc2)N1 (configuration not stated)"
study_target = "Plasmodium falciparum"
measured_value = 10.5


Enquiry: I am curious: what IC50 value has been reported for O=C(NCCCN1CCOCC1)C1Cc2c([nH]c3ccccc23)C(c2ccc(Cl)cc2)N1 (configuration not stated) ?
Return: 11.5

Enquiry: Also `CCCCCCCC[C@@H]1N[C@@H](C(=O)NCCC(C)(C)C)Cc2c1[nH]c1ccccc21` , if possible.
Return: 4.45

Enquiry: Also CC1NC(C(=O)N2CCCCC2)Cc2c1[nH]c1ccccc21 (configuration not stated) , if possible.
Return: 13.2

Enquiry: Also O=C(NC1CCCCC1)C1Cc2c([nH]c3ccccc23)C(c2ccc(Cl)cc2)N1 (racemic; form 1) , if possible.
Return: 16.1
